Source of measurements: the supplement of paper PMC11451515

# System: P12-Ichikawa
# experiment_notes: cell viability relative to DMSO control; higher = less cytotoxic
# reported_conditions: RPMI 5 mM glucose + 10% FBS; 48 h; 0.19 µM
metric: cell viability (%)

1. O=C(NC1CCNCC1)c1n[nH]cc1NC(=O)c1c(Cl)cccc1Cl : 121
2. CC[C@H]1OC(=O)[C@H](C)[C@@H](O[C@H]2C[C@@](C)(OC)[C@@H](O)[C@H](C)O2)[C@H](C)[C@@H](O[C@@H]2O[C@@H](C)C[C@H](N(C)C)[C@H]2O)[C@](C)(O)C[C@@H](C)C(=O)[C@H](C)[C@@H](O)[C@]1(C)O : 90
3. Nc1ccccc1NC(=O)c1ccc(CNc2nccc(-c3cccnc3)n2)cc1 : 110
4. Fc1cc(-c2cccc3ncc(-c4cnn(C5CCNCC5)c4)nc23)cc(F)c1CN1CCOCC1 : 118
5. Cc1cc(Nc2ncc(Cl)c(Nc3ccccc3[S+](=O)([O-])C(C)C)n2)c(OC(C)C)cc1C1CCNCC1 : 112
6. COc1nc(-c2ccc3c(c2)OCO3)n(-c2ccc(NC(=O)CSc3ccccc3)cc2)n1 : 113
7. CNC(=O)[C@H](Cc1ccccc1)NC(=O)[C@H](CC(C)C)[C@H](CSc1cccs1)C(=O)NO : 82.8
